System: EC-GI-10 (Esophageal Squamous Cell Carcinoma)
PROCEDURE SUMMARY: Bliss excess, mean over the matrix (fraction); higher = more synergy
# cutoff -0.005 applies to Bliss excess; >= gives class 1, < gives class 0

Ask: Given the entry CS(=O)(=O)CCNCc1ccc(-c2ccc3ncnc(Nc4ccc(OCc5cccc(F)c5)c(Cl)c4)c3c2)o1 [Lapatinib] + C[C@@H](Oc1cc(-c2cnn(C3CCNCC3)c2)cnc1N)c1c(Cl)ccc(F)c1Cl [Crizotinib] (first compound max 10 µM, 7x7, partner max 10 µM) , answer whether its Bliss excess meets or surpasses -0.005.
Result: class 0

Ask: Can you handle CN(C)CCCOc1ccc(-c2ccc3ncc4c(c3c2)n(C2CCOCC2)c(=O)n4C)cn1 [AZD0156] + CCN(CCO)CCCOc1ccc2c(Nc3cc(CC(=O)Nc4cccc(F)c4)[nH]n3)ncnc2c1 [AZD2811] (first compound max 1 µM, 7x7, partner max 1 µM) next?
Result: class 1

Ask: Now consider CN(C)CCCOc1ccc(-c2ccc3ncc4c(c3c2)n(C2CCOCC2)c(=O)n4C)cn1 [AZD0156] + O=C(c1cc(Cc2n[nH]c(=O)c3ccccc23)ccc1F)N1CCN(C(=O)C2CC2)CC1 [Olaparib] (first compound max 3 µM, partner max 3 µM) and answer again.
Result: class 1

Ask: Okay, and C[C@@H]1COCCN1c1cc(C2([S@](C)(=N)=O)CC2)nc(-c2ccnc3[nH]ccc23)n1 [AZD6738] + O=C(c1cc(Cc2n[nH]c(=O)c3ccccc23)ccc1F)N1CCN(C(=O)C2CC2)CC1 [Olaparib] (first compound max 10 µM, 7x7, partner max 10 µM) ?
Result: class 0

Ask: Another compound to check: COc1nnc2ccc(N3CCC(c4ccc(OCCN5CCN(C)C(=O)[C@H]5C)cc4)CC3)nn12 [AZD5153] + CC1(C)CCC(CN2CCN(c3ccc(C(=O)NS(=O)(=O)c4ccc(NCC5CCOCC5)c([N+](=O)[O-])c4)c(Oc4cnc5[nH]ccc5c4)c3)CC2)=C(c2ccc(Cl)cc2)C1 [Venetoclax] (first compound max 1 µM, 7x7, partner max 1 µM)
Result: class 0

Ask: Can you handle NC1(C(=O)N[C@@H](CCO)c2ccc(Cl)cc2)CCN(c2ncnc3[nH]ccc23)CC1 [Capivasertib] + CC(=O)c1c(C)c2cnc(Nc3ccc(N4CCNCC4)cn3)nc2n(C2CCCC2)c1=O [Palbociclib] (first compound max 10 µM, 7x7, partner max 10 µM) next?
Result: class 0

Ask: Queued: NC1(C(=O)N[C@@H](CCO)c2ccc(Cl)cc2)CCN(c2ncnc3[nH]ccc23)CC1 [Capivasertib] + COc1nnc2ccc(N3CCC(c4ccc(OCCN5CCN(C)C(=O)[C@H]5C)cc4)CC3)nn12 [AZD5153] (first compound max 10 µM, 7x7, partner max 1 µM)
Result: class 1

----------
System: TE-15 (Esophageal Squamous Cell Carcinoma)
PROCEDURE SUMMARY: Bliss excess, mean over the matrix (fraction); higher = more synergy
ENDPOINT: Bliss excess
Write the number on its own, no unit after it.

Sample answers from the record:
COMPOUND: Cn1cnc2c(F)c(Nc3ccc(Br)cc3Cl)c(C(=O)NOCCO)cc21 [Selumetinib] + CC(C)n1c(=O)n(C)c2cnc3cc(F)c(-c4ccc(OCCCN5CCCCC5)nc4)cc3c21 [AZD1390] (first compound max 10 µM, 7x7, partner max 0.3 µM)
MEASURED NUMBER: -0.0359

COMPOUND: NC1(C(=O)N[C@@H](CCO)c2ccc(Cl)cc2)CCN(c2ncnc3[nH]ccc23)CC1 [Capivasertib] + C[C@@H]1COCCN1C2=NC(=NC(=C2)C3(CC3)[S@](=N)(=O)C)C4=C5C=CNC5=NC=C4 [AZD6738] (first compound max 10 µM, 7x7, partner max 10 µM)
MEASURED NUMBER: -0.0494

# input for lookup
Ask: Quick one: Bliss excess for CN(CCO)CC[C@H](CSc1ccccc1)Nc1ccc(S(=O)(=O)NC(=O)c2ccc(N3CCC([C@@H](O)c4ccccc4-c4ccc(Cl)cc4)CC3)cc2)cc1S(=O)(=O)C(F)(F)F [AZD4320] + CCN(CCO)CCCOc1ccc2c(Nc3cc(CC(=O)Nc4cccc(F)c4)[nH]n3)ncnc2c1 [AZD2811] (first compound max 1 µM, 7x7, partner max 1 µM) ?
Result: -0.0393

----------
Test system: HCC1806 (Breast Carcinoma)
PROCEDURE SUMMARY: combination Emax (second highest fraction inhibited in the dose matrix, 72 h); higher = more inhibition; extreme values may be limits of the assay
Listed here are compounds together with their documented combination Emax.
Lab note: jot down the number only; don't add units.

Study these solved cases before continuing.
COMPOUND: CC(=O)c1c(C)c2cnc(Nc3ccc(N4CCNCC4)cn3)nc2n(C2CCCC2)c1=O [Palbociclib] + CN(CC[C@H](CSC1=CC=CC=C1)NC2=C(C=C(C=C2)S(=O)(=O)NC(=O)C3=CC=C(C=C3)N4CCC(CC4)[C@H](C5=CC=CC=C5C6=CC=C(C=C6)Cl)O)S(=O)(=O)C(F)(F)F)CCO [AZD4320] (first compound max 10 µM, 7x7, partner max 1 µM)
ENDPOINT: combination Emax
MEASURED NUMBER: 0.442
//
COMPOUND: Cn1cnc2c(F)c(Nc3ccc(Br)cc3Cl)c(C(=O)NOCCO)cc21 [Selumetinib] + CCN(CCO)CCCOc1ccc2c(Nc3cc(CC(=O)Nc4cccc(F)c4)[nH]n3)ncnc2c1 [AZD2811] (first compound max 10 µM, 7x7, partner max 1 µM)
ENDPOINT: combination Emax
MEASURED NUMBER: 0.321
//
COMPOUND: Cc1c2c(nn1C)CSCc1cc(n(C)n1)CSc1cc(c3ccccc3c1)OCCCc1c(C(=O)O)n(C)c3c-2c(Cl)ccc13 [AZD5991] + C[C@@H]1COCCN1C2=NC(=NC(=C2)C3(CC3)[S@](=N)(=O)C)C4=C5C=CNC5=NC=C4 [AZD6738] (first compound max 1 µM, 7x7, partner max 10 µM)
ENDPOINT: combination Emax
MEASURED NUMBER: 0.961
//
COMPOUND: C=CCn1c(=O)c2cnc(Nc3ccc(N4CCN(C)CC4)cc3)nc2n1-c1cccc(C(C)(C)O)n1 [AZD1775] + O=C(c1cc(Cc2n[nH]c(=O)c3ccccc23)ccc1F)N1CCN(C(=O)C2CC2)CC1 [Olaparib] (first compound max 1 µM, partner max 10 µM)
ENDPOINT: combination Emax
MEASURED NUMBER: 0.836
//
COMPOUND: COc1cccc(OCCCN)c1-c1cc(Nc2cnc(C#N)cn2)n[nH]1 [Prexasertib] + C[C@@H]1COCCN1C2=NC(=NC(=C2)C3(CC3)[S@](=N)(=O)C)C4=C5C=CNC5=NC=C4 [AZD6738] (first compound max 1 µM, 7x7, partner max 10 µM)
ENDPOINT: combination Emax
MEASURED NUMBER: 0.988

Ask: Can you share its combination Emax? I mean this compound: NC1(C(=O)N[C@@H](CCO)c2ccc(Cl)cc2)CCN(c2ncnc3[nH]ccc23)CC1 [Capivasertib] + COc1nnc2ccc(N3CCC(c4ccc(OCCN5CCN(C)C(=O)[C@H]5C)cc4)CC3)nn12 [AZD5153] (first compound max 10 µM, 7x7, partner max 1 µM)
Result: 0.556

Ask: Param item: CC1(C)CCC(CN2CCN(c3ccc(C(=O)NS(=O)(=O)c4ccc(NCC5CCOCC5)c([N+](=O)[O-])c4)c(Oc4cnc5[nH]ccc5c4)c3)CC2)=C(c2ccc(Cl)cc2)C1 [Venetoclax] + C=CCn1c(=O)c2cnc(Nc3ccc(N4CCN(C)CC4)cc3)nc2n1-c1cccc(C(C)(C)O)n1 [AZD1775] (first compound max 1 µM, partner max 1 µM)
Result: 0.912

Ask: Can you check Cc1c2c(nn1C)CSCc1cc(n(C)n1)CSc1cc(c3ccccc3c1)OCCCc1c(C(=O)O)n(C)c3c-2c(Cl)ccc13 [AZD5991] + C1CN(CCC1(C(=O)N[C@@H](CCO)C2=CC=C(C=C2)Cl)N)C3=NC=NC4=C3C=CN4 [Capivasertib] (first compound max 1 µM, 7x7, partner max 3 µM) next?
Result: 0.528

Ask: For Cc1c2c(nn1C)CSCc1cc(n(C)n1)CSc1cc(c3ccccc3c1)OCCCc1c(C(=O)O)n(C)c3c-2c(Cl)ccc13 [AZD5991] + C[C@@H](Nc1cc(F)cc(F)c1)c1cc(C(=O)N(C)C)cc2c(=O)cc(N3CCOCC3)oc12 [AZD8186] (first compound max 1 µM, 7x7, partner max 3 µM) then?
Result: 0.6

----------
System: HuP-T4 (Pancreatic Carcinoma)
PROCEDURE SUMMARY: Bliss excess, mean over the matrix (fraction); higher = more synergy
ENDPOINT: Bliss excess
I'd appreciate a reply containing only the number, no unit.

# example entries with known answers
COMPOUND: CC1(C)CCC(CN2CCN(c3ccc(C(=O)NS(=O)(=O)c4ccc(NCC5CCOCC5)c([N+](=O)[O-])c4)c(Oc4cnc5[nH]ccc5c4)c3)CC2)=C(c2ccc(Cl)cc2)C1 [Venetoclax] + Cc1cc2ncnn2cc1Nc1ncc2c(n1)n(C1CCOCC1)c(=O)n2C [AZD7648] (first compound max 1 µM, 7x7, partner max 10 µM)
TESTED TARGET: HuP-T4 (Pancreatic Carcinoma)
Bliss excess: -0.0151
--
COMPOUND: CS(=O)(=O)CCNCc1ccc(-c2ccc3ncnc(Nc4ccc(OCc5cccc(F)c5)c(Cl)c4)c3c2)o1 [Lapatinib] + C[C@@H](Oc1cc(-c2cnn(C3CCNCC3)c2)cnc1N)c1c(Cl)ccc(F)c1Cl [Crizotinib] (first compound max 10 µM, 7x7, partner max 10 µM)
TESTED TARGET: HuP-T4 (Pancreatic Carcinoma)
Bliss excess: 0.0261

Ask: Quick one: Bliss excess for NC1(C(=O)N[C@@H](CCO)c2ccc(Cl)cc2)CCN(c2ncnc3[nH]ccc23)CC1 [Capivasertib] + C[C@@H]1COCCN1C2=NC(=NC(=C2)C3(CC3)[S@](=N)(=O)C)C4=C5C=CNC5=NC=C4 [AZD6738] (first compound max 10 µM, 7x7, partner max 10 µM) ?
Result: -0.0333
